- procedure summary: Stability in human plasma assessed as compound remaining at 1 uM measured after 2 hrs by LC-MS/MS analysis
- Assay type: ADME, cell-free
- measurement conditions: read-out: Stability
outcome measure: remaining at 2 h, 1 µM (%)
Quick reminder: number only, in %, skip the unit.

**Query** Requested field: remaining at 2 h, 1 µM. Item: [2H]C([2H])([2H])c1cc(C#N)cc(C([2H])([2H])[2H])c1Oc1nc(NC2CCN(Cc3ccc(S(N)(=O)=O)cc3)CC2)nc2ccsc12
**Result** 92.7

====

Overview of reported selectivity ratio across a group of compounds:
- procedure summary: Selectivity index, ratio of CC50 for cytotoxicity against human MT4 cells to EC50 for antiviral activity against wild-type HIV-1 IIIB infected in human MT4 cells
- Type: toxicity, cell-based
- measurement conditions: read-out: Ratio CC50/EC50
Reply briefly: the number, and no unit.

[[record]]
molecular_string = "[2H]C([2H])([2H])c1cc(C#N)cc(C)c1Oc1nc(NC2CCN(Cc3ccc(S(N)(=O)=O)cc3)CC2)nc2ccsc12"
reported = 31200

[[record]]
molecular_string = "[2H]C([2H])([2H])c1cc(-c2ccc(C#N)cc2)cc(C([2H])([2H])[2H])c1Nc1ccnc(Nc2ccc(C#N)cc2)n1"
reported = 3260


// next entry
**Query** Fill blank: measured selectivity ratio of the compound [2H]C([2H])([2H])c1cc(C#N)cc(C)c1Oc1nc(NC2CCN(Cc3ccc(S(N)(=O)=O)cc3)CC2)nc2scnc12 is ____.
**Result** 5320

====

- Test system: Human immunodeficiency virus 1
- procedure summary: Antiviral activity against drug-resistant HIV-1 harboring RT L100I mutant infected in human MT4 cells assessed as protection against virus-induced cytopathicity measured after 5 days post-infection by MTT assay
- Type: functional, organism-based
- measurement conditions: Human immunodeficiency virus 1, MT4, 120 h
outcome measure: pEC50
FYI, pEC50 means -log10 of a concentration in mol per litre.

Use the examples below as a reference point.
[[record]]
molecular_string = "[2H]C([2H])([2H])c1cc(C#N)cc(C([2H])([2H])[2H])c1Oc1nc(NC2CCN(Cc3ccc(S(N)(=O)=O)cc3)CC2)nc2ccccc12"
reported = 7.77

[[record]]
molecular_string = "[2H]C([2H])([2H])c1cc(C#N)cc(C)c1Oc1nc(NC2CCN(Cc3ccc(C(N)=O)cc3)CC2)nc2scnc12"
reported = 7.88

[[record]]
molecular_string = "[2H]C([2H])([2H])c1cc(C#N)cc(C([2H])([2H])[2H])c1Oc1nc(NC2CCN(Cc3ccc(C(N)=O)cc3)CC2)nc2sccc12"
reported = 7.67


**Query** Report pEC50 for [2H]C([2H])([2H])c1cc(-c2ccc(C#N)cc2)cc(C)c1Nc1ccnc(Nc2ccc(C#N)cc2)n1 please.
**Result** 8.56

====

- procedure summary: Stability in human plasma assessed as compound remaining at 1 uM measured after 1 hr by LC-MS/MS analysis
- Format: ADME, cell-free
- measurement conditions: read-out: Stability
outcome measure: remaining at 1 h, 1 µM

**Query** Entry [2H]C([2H])([2H])c1cc(C#N)cc(C([2H])([2H])[2H])c1Oc1nc(NC2CCN(Cc3ccc(S(N)(=O)=O)cc3)CC2)nc2ccsc12 has what remaining at 1 h, 1 µM?
**Result** 96.5%

====

- procedure summary: Tmax in Sprague-Dawley rat at 1 mg/kg, iv measured for 0.083 to 24 hrs by LC-MS/MS analysis
- Format: ADME, organism-based
- measurement conditions: in vivo, time 0.083-24 hrs
outcome measure: Tmax (min)
// units = min; emit number, no label

**Query** Item [2H]C([2H])([2H])c1cc(C#N)cc(C([2H])([2H])[2H])c1Oc1nc(NC2CCN(Cc3ccc(S(N)(=O)=O)cc3)CC2)nc2ccsc12 has what recorded Tmax?
**Result** 4.8

====

- procedure summary: Half life in Sprague-Dawley rat at 10 mg/kg, po measured for 0.083 to 24 hrs by LC-MS/MS analysis
- Format: ADME, organism-based
- measurement conditions: in vivo, time 0.083-24 hrs
outcome measure: half-life (h)
Output spec: scalar in h, unitless text.

**Query** I would be grateful if you could share the reported half-life for [2H]C([2H])([2H])c1cc(C#N)cc(C([2H])([2H])[2H])c1Oc1nc(NC2CCN(Cc3ccc(S(N)(=O)=O)cc3)CC2)nc2ccsc12 .
**Result** 1.58

====

- procedure summary: Metabolic stability in dog liver microsomes assessed as half life at 1 uM measured up to 45 mins by LC/MS/MS analysis
- Format: ADME, Canis lupus familiaris, Microsome
- measurement conditions: liver microsomes
outcome measure: half-life at 1 µM (h)
Express it in h; write the number only.

**Query** Entry Cc1cc(/C=C/C#N)cc(C)c1Nc1ccnc(Nc2ccc(C#N)cc2)n1 : reported half-life at 1 µM = ?
**Result** 1.32

====

- procedure summary: Drug metabolism in dog liver microsomes assessed as metabolic fraction at 1 uM measured up to 45 mins by LC/MS/MS analysis
- Type: ADME, Canis lupus familiaris, Microsome
- measurement conditions: liver microsomes, read-out: Fm
outcome measure: metabolised at 0.75 h, 1 µM (%)
Supply the numeric figure in %, leaving out any unit text.

**Query** For Cc1cc(/C=C/C#N)cc(C)c1Nc1ccnc(Nc2ccc(C#N)cc2)n1 [RILPIVIRINE] , what is its reported metabolised at 0.75 h, 1 µM?
**Result** 44.8

====

- System: Human immunodeficiency virus 1
- procedure summary: Antiviral activity against drug-resistant HIV-1 harboring RT Y188L mutant infected in human MT4 cells assessed as protection against virus-induced cytopathicity measured after 5 days post-infection by MTT assay
- Assay type: functional, organism-based
- measurement conditions: Human immunodeficiency virus 1, MT4, 120 h
outcome measure: EC50 (µM)
Provide the reading as a plain figure in µM.

**Query** Need EC50 of [2H]C([2H])([2H])c1cc(C#N)cc(C)c1Oc1nc(NC2CCN(Cc3ccc(S(N)(=O)=O)cc3)CC2)nc2sccc12 , thanks.
**Result** 0.0555

**Query** Which EC50 reading was recorded for the compound [2H]C([2H])([2H])c1cc(C#N)cc(C([2H])([2H])[2H])c1Oc1nc(NC2CCN(Cc3ccc(S(N)(=O)=O)cc3)CC2)nc2sccc12 ?
**Result** 0.0104

**Query** // EC50 lookup, key: Cc1cc(-c2ccc(C#N)cc2)cc(C)c1Nc1ccnc(Nc2ccc(C#N)cc2)n1
**Result** 0.0405

**Query** Given the compound [2H]C([2H])([2H])c1cc(C#N)cc(C)c1Oc1nc(NC2CCN(Cc3ccc(S(N)(=O)=O)cc3)CC2)nc2ccccc12 , what is its reported EC50?
**Result** 0.0542

**Query** Entry [2H]C([2H])([2H])c1cc(C#N)cc(C)c1Oc1nc(NC2CCN(Cc3ccc(C(N)=O)cc3)CC2)nc2sccc12 : reported EC50 = ?
**Result** 0.0945

**Query** What measured EC50 goes with [2H]C([2H])([2H])c1cc(C#N)cc(C([2H])([2H])[2H])c1Oc1nc(NC2CCN(Cc3ccc(C(N)=O)cc3)CC2)nc2scnc12 ?
**Result** 0.0521

**Query** Data request, read-out EC50, for [2H]C([2H])([2H])c1cc(C#N)cc(C([2H])([2H])[2H])c1Oc1nc(NC2CCN(Cc3ccc(C(N)=O)cc3)CC2)nc2ccccc12
**Result** 0.0607

**Query** Query (compound): [2H]C([2H])([2H])c1cc(-c2ccc(C#N)cc2)cc(C)c1Nc1ccnc(Nc2ccc(C#N)cc2)n1 ; field requested: EC50
**Result** 0.0575

**Query** Look at this compound and give its reported EC50. [2H]C([2H])([2H])c1cc(-c2ccc(C#N)cc2)cc(C([2H])([2H])[2H])c1Nc1ccnc(Nc2ccc(C#N)cc2)n1
**Result** 0.0551

**Query** // lookup EC50 for [2H]C([2H])([2H])c1cc(C#N)cc(C)c1Oc1nc(NC2CCN(Cc3ccc(C(N)=O)cc3)CC2)nc2ccsc12
**Result** 0.0599

====

- system: Cytochrome P450 2B6 (Homo sapiens)
- Sequence (P20813 whole entry): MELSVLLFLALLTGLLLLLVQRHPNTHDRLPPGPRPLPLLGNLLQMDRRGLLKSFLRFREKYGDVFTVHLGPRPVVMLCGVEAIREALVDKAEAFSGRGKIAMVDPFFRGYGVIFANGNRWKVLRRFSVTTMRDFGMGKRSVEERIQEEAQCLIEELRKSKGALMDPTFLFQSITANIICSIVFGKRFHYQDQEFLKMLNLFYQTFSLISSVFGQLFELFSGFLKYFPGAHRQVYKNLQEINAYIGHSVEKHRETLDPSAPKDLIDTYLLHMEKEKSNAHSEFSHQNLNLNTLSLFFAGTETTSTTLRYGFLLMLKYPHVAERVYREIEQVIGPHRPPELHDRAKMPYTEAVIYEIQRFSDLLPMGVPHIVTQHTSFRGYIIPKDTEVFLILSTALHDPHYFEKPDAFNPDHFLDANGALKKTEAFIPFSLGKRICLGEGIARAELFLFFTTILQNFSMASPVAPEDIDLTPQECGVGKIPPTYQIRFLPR
outcome measure: IC50

**Query** Record request: IC50 value, item [2H]C([2H])([2H])c1cc(C#N)cc(C([2H])([2H])[2H])c1Oc1nc(NC2CCN(Cc3ccc(S(N)(=O)=O)cc3)CC2)nc2ccsc12
**Result** > 10 µM

====

- Test system: Human immunodeficiency virus 1
- procedure summary: Antiviral activity against drug-resistant HIV-1 harboring RT RES056 mutant infected in human MT4 cells assessed as protection against virus-induced cytopathicity measured after 5 days post-infection by MTT assay
- Assay type: functional, organism-based
- measurement conditions: Human immunodeficiency virus 1, MT4, 120 h
outcome measure: pEC50
Schema: pEC50 number; meaning minus log10 of the concentration expressed in molar units.

// worked examples, pEC50 included
[[record]]
molecule = "[2H]C([2H])([2H])c1cc(-c2ccc(C#N)cc2)cc(C([2H])([2H])[2H])c1Nc1ccnc(Nc2ccc(C#N)cc2)n1"
system = "Human immunodeficiency virus 1"
outcome_measure = "pEC50"
reported = 7.16

[[record]]
molecule = "Cc1cc(C#N)cc(C)c1Oc1nc(Nc2ccc(C#N)cc2)nc(N)c1Br [ETRAVIRINE]"
system = "Human immunodeficiency virus 1"
outcome_measure = "pEC50"
reported = 7.44

[[record]]
molecule = "[2H]C([2H])([2H])c1cc(C#N)cc(C)c1Oc1nc(NC2CCN(Cc3ccc(S(N)(=O)=O)cc3)CC2)nc2ccccc12"
system = "Human immunodeficiency virus 1"
outcome_measure = "pEC50"
reported = 6.61


Now let's try a different one.
**Query** # input molecule: [2H]C([2H])([2H])c1cc(C#N)cc(C)c1Oc1nc(NC2CCN(Cc3ccc(S(N)(=O)=O)cc3)CC2)nc2scnc12 ; wanted: its pEC50
**Result** 7.24

Source: ChEMBL document CHEMBL6134848
